assayName: total protein half-life in vivo (active degradation + dilution); higher = more stable protein
condition: E. coli NCM3722 delta-clpP delta-lon delta-hslV; growth: N-lim chemostat; doubling time 6 h
Catalogue of total protein half-life in vivo readings, one per entry.

| constructSequence | readingUnit | total protein half-life in vivo |
| --- | --- | --- |
| MIISAASDYRAAAQRILPPFLFHYMDGGAYSEYTLRRNVEDLSEVALRQRILKNMSDLSLETTLFNEKLSMPVALAPVGLCGMYARRGEVQAAKAADAHGIPFTLSTVSVCPIEEVAPAIKRPMWFQLYVLRDRGFMRNALERAKAAGCSTLVFTVDMPTPGARYRDAHSGMSGPNAAMRRYLQAVTHPQWAWDVGLNGRPHDLGNISAYLGKPTGLEDYIGWLGNNFDPSISWKDLEWIRDFWDGPMVIKGILDPEDARDAVRFGADGIVVSNHGGRQLDGVLSSARALPAIADAVKGDIAILADSGIRNGLDVVRMIALGADTVLLGRAFLYALATAGQAGVANLLNLIEKEMKVAMTLTGAKSISEITQDSLVQGLGKELPAALAPMAKGNAA | h | 6.01 |
| MKLTTHHLRTGAALLLAGILLAGCDQSSSDAKHIKVGVINGAEQDVAEVAKKVAKEKYGLDVELVGFSGSLLPNDATNHGELDANVFQHRPFLEQDNQAHGYKLVAVGNTFVFPMAGYSKKIKTVAQIKEGATVAIPNDPTNLGRALLLLQKEKLITLKEGKGLLPTALDITDNPRHLQIMELEGAQLPRVLDDPKVDVAIISTTYIQQTGLSPVHDSVFIEDKNSPYVNILVAREDNKNAENVKEFLQSYQSPEVAKAAETIFNGGAVPGW | h | 5.58 |
| MAISSRNTLLAALAFIAFQAQAVNVTVAYQTSAEPAKVAQADNTFAKESGATVDWRKFDSGASIVRALASGDVQIGNLGSSPLAVAASQQVPIEVFLLASKLGNSEALVVKKTISKPEDLIGKRIAVPFISTTHYSLLAALKHWGIKPGQVEIVNLQPPAIIAAWQRGDIDGAYVWAPAVNALEKDGKVLTDSEQVGQWGAPTLDVWVVRKDFAEKHPEVVKAFAKSAIDAQQPYIANPDVWLKQPENISKLARLSGVPEGDVPGLVKGNTYLTPQQQTAELTGPVNKAIIDTAQFLKEQGKVPAVANDYSQYVTSRFVQ | h | 4.13 |
| MVFRIASSPYTHNQRQTSRIMLLVLLAAVPGIAAQLWFFGWGTLVQILLASVSALLAEALVLKLRKQSVAATLKDNSALLTGLLLAVSIPPLAPWWMVVLGTVFAVIIAKQLYGGLGQNPFNPAMIGYVVLLISFPVQMTSWLPPHEIAVNIPGFIDAIQVIFSGHTASGGDMNTLRLGIDGISQATPLDTFKTSVRAGHSVEQIMQYPIYSGILAGAGWQWVNLAWLAGGVWLLWQKAIRWHIPLSFLVTLALCAMLGWLFSPETLAAPQIHLLSGATMLGAFFILTDPVTASTTNRGRLIFGALAGLLVWLIRSFGGYPDGVAFAVLLANITVPLIDYYTRPRVYGHRKG | h | 7.06 |
| MMIRERIEEKLRAAFQPVFLEVVDESYRHNVPAGSESHFKVVLVSDRFTGERFLNRHRMIYSTLAEELSTTVHALALHTYTIKEWEGLQDTVFASPPCRGAGSIA [P0ABE2] | h | 3.71 |
| MNNMNVIIADDHPIVLFGIRKSLEQIEWVNVVGEFEDSTALINNLPKLDAHVLITDLSMPGDKYGDGITLIKYIKRHFPSLSIIVLTMNNNPAILSAVLDLDIEGIVLKQGAPTDLPKALAALQKGKKFTPESVSRLLEKISAGGYGDKRLSPKESEVLRLFAEGFLVTEIAKKLNRSIKTISSQKKSAMMKLGVENDIALLNYLSSVTLSPADKD [P0DMC7] | h | 5.91 |
